assay: chemical genetic growth profiling, strain panel (AID 1159580);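 also: tested at 20 µM; growth read once vehicle control cultures reached saturation at 30 °C; 1 = growth at the plate median or of vehicle wells; lower values mean less growth of the strain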; conditions: S. cerevisiae deletion strains, growth OD, locus YCL011C, strain gbp2, stronger effect = lower value
Hit rate of the full screen: of about 5,500 compounds, about 2,000 (36%) were called active. About 18% were inconclusive and are not listed. Some of the results follow.
# maps each entry to its normalized growth
Answer as a number with no unit attached.

The examples below pair each entry with its known result.
INSERT INTO results (molecule, numeric_readout) VALUES
  ('CC(=O)OCC[C@H](C)CCC=C(C)C', 1.01),
  ('CC1OC1P(=O)(O)O (stereo not given)', 1.03);

Enquiry: Quick check: normalized growth of CO/N=C(\C(=O)NC1C(=O)N2C(C(=O)O)=C(COC(N)=O)CSC12)c1ccco1 (stereo not given) ?
Return: 0.968

Enquiry: Okay, and CO/N=C(\C(=O)NC1C(=O)N2C(C(=O)OC(C)OC(C)=O)=C(COC(N)=O)CSC12)c1ccco1 (stereo not given) ?
Return: 0.997

Enquiry: Okay, and C#CCCCCCCCCCCCC(O)CC(O)CO (stereo not given) ?
Return: 0.988

Enquiry: Okay, and CC1=CC2C(CC1=O)C(C)=CCC2C(C)C (stereo not given) ?
Return: 1.01

Enquiry: Okay, and C#CCCCCCCCCCCCC(=O)CC(O)COC(C)=O (stereo not given) ?
Return: 0.936

Enquiry: Okay, and CC[C@H](C)C(=O)O[C@H]1CCC=C2C=C[C@H](C)C(CCC3C[C@@H](O)CC(=O)O3)[C@H]21 (stereo not given in full) ?
Return: 1.01

Enquiry: Okay, and CO/N=C(\C(=O)N[C@@H]1C(=O)N2C(C(=O)O)=C(CSc3nc(=O)c(O)nn3C)CS[C@H]12)c1csc(N)n1 ?
Return: 0.958

Enquiry: Okay, and CO/N=C(\C(=O)N[C@@H]1C(=O)N2C(C(=O)O)=C(COC(C)=O)CS[C@H]12)c1csc(N)n1 ?
Return: 0.954

###

# maps each entry to its normalized growth
assay: chemical genetic growth profiling, strain panel (AID 1159580);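 also: tested at 20 µM; growth read once vehicle control cultures reached saturation at 30 °C; 1 = growth at the plate median or of vehicle wells; lower values mean less growth of the strain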; settings: S. cerevisiae deletion strains, growth OD, locus YLR133W, strain CKI1, stronger effect = lower value
Hit rate of the full screen: of about 5,500 compounds, about 2,000 (36%) were called active. Another 18% or so got no clear call; they are omitted. The list shows a part of the results.
Answer as a number with no unit attached.

INSERT INTO measurements (compound, numeric_readout) VALUES
  ('Cc1cccc(NC(=S)NNC(=O)CSCc2cccc3ccccc23)c1', 0.948),
  ('OC(CN1CCN(c2nc3ccc(Cl)cc3s2)CC1)Cn1ccc2ccccc21 (stereo not given)', 0.942),
  ('Cc1c(C(=O)N(Cc2ccccc2)Cc2cccs2)cnn1-c1ccc(Cl)cc1', 0.936),
  ('Cc1onc(-c2c(Cl)cccc2Cl)c1C(=O)NNc1c(Cl)cccc1Cl', 0.976),
  ('CC(=O)ON=C1c2cc([N+](=O)[O-])ccc2-c2ccc([N+](=O)[O-])cc21', 0.879);

Enquiry: Quick check: normalized growth of CC(C)(C)c1ccc(C(=O)Nc2ccc(C(F)(F)F)cc2)s1 ?
Return: 0.971

Enquiry: Okay, and CCCCN(C)C(=O)c1cc([N+](=O)[O-])cc2c1-c1ccc([N+](=O)[O-])cc1C2=C(C#N)C#N ?
Return: 0.99
